Test system: Mycobacterium tuberculosis Erdman (autoluminescent)
Assay: total FIC50 (Loewe) at 50% inhibition, three-drug combination (log2); higher = more antagonistic
Details: in vitro model: cholesterol-high 0.2 mM; time point: terminal (~4-5 doublings, model-specific)
Hi there, I'd appreciate the recorded total FIC50 for every entry that follows.
Answer as a number with no unit attached.

Write down the reported total FIC50 of COc1nc2ccc(Br)cc2cc1[C@@H](c1ccccc1)[C@@](O)(CCN(C)C)c1cccc2ccccc12 [bedaquiline] + O=[N+]([O-])c1cn2c(n1)OC[C@@H](OCc1ccc(OC(F)(F)F)cc1)C2 [pretomanid] + CO[C@H]1/C=C/O[C@@]2(C)Oc3c(C)c(O)c4c(O)c(c(/C=N/N5CCN(C)CC5)c(O)c4c3C2=O)NC(=O)/C(C)=C\C=C\[C@H](C)[C@H](O)[C@@H](C)[C@@H](O)[C@@H](C)[C@H](OC(C)=O)[C@@H]1C [rifampicin] , test system: Mycobacterium tuberculosis Erdman (autoluminescent).
1.17

Write down the reported total FIC50 of CC(C)/N=c1\cc2n(-c3ccc(Cl)cc3)c3ccccc3nc-2cc1Nc1ccc(Cl)cc1 [clofazimine] + CC[C@@H](CO)NCCN[C@@H](CC)CO [ethambutol] + NC(=O)c1cnccn1 [pyrazinamide] , test system: Mycobacterium tuberculosis Erdman (autoluminescent).
0.581

Write down the reported total FIC50 of COc1nc2ccc(Br)cc2cc1[C@@H](c1ccccc1)[C@@](O)(CCN(C)C)c1cccc2ccccc12 [bedaquiline] + COc1c(N2C[C@@H]3CCCN[C@@H]3C2)c(F)cc2c(=O)c(C(=O)O)cn(C3CC3)c12 [moxifloxacin] + CO[C@H]1/C=C/O[C@@]2(C)Oc3c(C)c(O)c4c(O)c(c(/C=N/N5CCN(C)CC5)c(O)c4c3C2=O)NC(=O)/C(C)=C\C=C\[C@H](C)[C@H](O)[C@@H](C)[C@@H](O)[C@@H](C)[C@H](OC(C)=O)[C@@H]1C [rifampicin] , test system: Mycobacterium tuberculosis Erdman (autoluminescent).
0.955

Write down the reported total FIC50 of COc1nc2ccc(Br)cc2cc1[C@@H](c1ccccc1)[C@@](O)(CCN(C)C)c1cccc2ccccc12 [bedaquiline] + CC(=O)NC[C@H]1CN(c2ccc(N3CCOCC3)c(F)c2)C(=O)O1 [linezolid] + CO[C@H]1/C=C/O[C@@]2(C)Oc3c(C)c(O)c4c(O)c(c(/C=N/N5CCN(C)CC5)c(O)c4c3C2=O)NC(=O)/C(C)=C\C=C\[C@H](C)[C@H](O)[C@@H](C)[C@@H](O)[C@@H](C)[C@H](OC(C)=O)[C@@H]1C [rifampicin] , test system: Mycobacterium tuberculosis Erdman (autoluminescent).
0.65

Write down the reported total FIC50 of COc1nc2ccc(Br)cc2cc1[C@@H](c1ccccc1)[C@@](O)(CCN(C)C)c1cccc2ccccc12 [bedaquiline] + NNC(=O)c1ccncc1 [isoniazid] + O=[N+]([O-])c1cn2c(n1)OC[C@@H](OCc1ccc(OC(F)(F)F)cc1)C2 [pretomanid] , test system: Mycobacterium tuberculosis Erdman (autoluminescent).
0.584

Write down the reported total FIC50 of NNC(=O)c1ccncc1 [isoniazid] + NC(=O)c1cnccn1 [pyrazinamide] + CO[C@H]1/C=C/O[C@@]2(C)Oc3c(C)c(O)c4c(O)c(c(/C=N/N5CCN(C)CC5)c(O)c4c3C2=O)NC(=O)/C(C)=C\C=C\[C@H](C)[C@H](O)[C@@H](C)[C@@H](O)[C@@H](C)[C@H](OC(C)=O)[C@@H]1C [rifampicin] , test system: Mycobacterium tuberculosis Erdman (autoluminescent).
1.16

Write down the reported total FIC50 of CC(C)/N=c1\cc2n(-c3ccc(Cl)cc3)c3ccccc3nc-2cc1Nc1ccc(Cl)cc1 [clofazimine] + O=[N+]([O-])c1cn2c(n1)OC[C@@H](OCc1ccc(OC(F)(F)F)cc1)C2 [pretomanid] + NC(=O)c1cnccn1 [pyrazinamide] , test system: Mycobacterium tuberculosis Erdman (autoluminescent).
0.565

Write down the reported total FIC50 of NNC(=O)c1ccncc1 [isoniazid] + O=[N+]([O-])c1cn2c(n1)OC[C@@H](OCc1ccc(OC(F)(F)F)cc1)C2 [pretomanid] + CO[C@H]1/C=C/O[C@@]2(C)Oc3c(C)c(O)c4c(O)c(c(/C=N/N5CCN(C)CC5)c(O)c4c3C2=O)NC(=O)/C(C)=C\C=C\[C@H](C)[C@H](O)[C@@H](C)[C@@H](O)[C@@H](C)[C@H](OC(C)=O)[C@@H]1C [rifampicin] , test system: Mycobacterium tuberculosis Erdman (autoluminescent).
0.794

Write down the reported total FIC50 of CC(C)/N=c1\cc2n(-c3ccc(Cl)cc3)c3ccccc3nc-2cc1Nc1ccc(Cl)cc1 [clofazimine] + CC[C@@H](CO)NCCN[C@@H](CC)CO [ethambutol] + CC(=O)NC[C@H]1CN(c2ccc(N3CCOCC3)c(F)c2)C(=O)O1 [linezolid] , test system: Mycobacterium tuberculosis Erdman (autoluminescent).
-0.259

Write down the reported total FIC50 of COc1c(N2C[C@@H]3CCCN[C@@H]3C2)c(F)cc2c(=O)c(C(=O)O)cn(C3CC3)c12 [moxifloxacin] + NC(=O)c1cnccn1 [pyrazinamide] + CO[C@H]1/C=C/O[C@@]2(C)Oc3c(C)c(O)c4c(O)c(c(/C=N/N5CCN(C6CCCC6)CC5)c(O)c4c3C2=O)NC(=O)/C(C)=C\C=C\[C@H](C)[C@H](O)[C@@H](C)[C@@H](O)[C@@H](C)[C@H](OC(C)=O)[C@@H]1C [rifapentine] , test system: Mycobacterium tuberculosis Erdman (autoluminescent).
1.23

Write down the reported total FIC50 of CC(C)/N=c1\cc2n(-c3ccc(Cl)cc3)c3ccccc3nc-2cc1Nc1ccc(Cl)cc1 [clofazimine] + NNC(=O)c1ccncc1 [isoniazid] + O=[N+]([O-])c1cn2c(n1)OC[C@@H](OCc1ccc(OC(F)(F)F)cc1)C2 [pretomanid] , test system: Mycobacterium tuberculosis Erdman (autoluminescent).
0.306

Write down the reported total FIC50 of CC[C@@H](CO)NCCN[C@@H](CC)CO [ethambutol] + O=[N+]([O-])c1cn2c(n1)OC[C@@H](OCc1ccc(OC(F)(F)F)cc1)C2 [pretomanid] + CO[C@H]1/C=C/O[C@@]2(C)Oc3c(C)c(O)c4c(O)c(c(/C=N/N5CCN(C6CCCC6)CC5)c(O)c4c3C2=O)NC(=O)/C(C)=C\C=C\[C@H](C)[C@H](O)[C@@H](C)[C@@H](O)[C@@H](C)[C@H](OC(C)=O)[C@@H]1C [rifapentine] , test system: Mycobacterium tuberculosis Erdman (autoluminescent).
1.34
